Reported log10(EC50) values for a set of binders
assay-target: T1, full-length beta-Catenin (Uniprot ID P35222) (Homo sapiens (Human), UniProt P35222 1-781)
T1 construct: also called bCat; B-Catenin
T1 sequence: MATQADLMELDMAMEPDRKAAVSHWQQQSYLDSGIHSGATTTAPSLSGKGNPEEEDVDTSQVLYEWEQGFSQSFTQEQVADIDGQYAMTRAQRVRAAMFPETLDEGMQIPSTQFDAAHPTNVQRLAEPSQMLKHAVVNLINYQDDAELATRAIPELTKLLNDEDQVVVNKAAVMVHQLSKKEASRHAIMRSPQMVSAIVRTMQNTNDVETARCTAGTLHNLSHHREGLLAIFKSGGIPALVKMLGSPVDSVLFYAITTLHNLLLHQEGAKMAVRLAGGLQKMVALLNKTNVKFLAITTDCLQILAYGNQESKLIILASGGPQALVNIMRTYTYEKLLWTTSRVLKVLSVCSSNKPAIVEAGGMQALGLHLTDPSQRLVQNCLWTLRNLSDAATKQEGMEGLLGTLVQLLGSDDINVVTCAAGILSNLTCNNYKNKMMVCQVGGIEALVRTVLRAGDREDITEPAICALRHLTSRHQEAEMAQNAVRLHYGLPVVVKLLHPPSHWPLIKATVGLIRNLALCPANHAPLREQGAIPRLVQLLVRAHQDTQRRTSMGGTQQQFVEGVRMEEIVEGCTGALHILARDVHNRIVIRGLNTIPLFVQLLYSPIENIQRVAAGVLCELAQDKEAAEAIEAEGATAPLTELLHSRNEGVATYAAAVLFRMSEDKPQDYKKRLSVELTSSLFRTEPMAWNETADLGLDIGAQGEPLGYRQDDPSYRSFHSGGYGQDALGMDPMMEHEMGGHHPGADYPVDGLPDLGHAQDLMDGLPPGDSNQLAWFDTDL
assay-remarks: fluorescence polarization competition; displacement of 5FAM-TCF4(10-53) from full-length beta-catenin
Starred links: 1 amine or outer side, 2 acyl side, 3 side chain; linkers in the order of their positions; H or OH if unused. Positions of bridges follow the written chain, without caps; N, C: chain ends. Non-standard residues stand in square brackets, D forms with d. Primed or numbered codes have the meaning given here. B5(17) = 2,2-bis(4-pentenyl)glycine = 2-amino-2-(pent-4-en-1-yl)hept-6-enoic acid, stitching residue, C=CCCCC(CCCC=C)(N[*:1])C(=O)[*:2]; B5(4) = 2,2-bis(4-pentenyl)glycine = 2-amino-2-(pent-4-en-1-yl)hept-6-enoic acid (stitching residue), C=CCCCC(CCCC=C)(N[*:1])C(=O)[*:2]; B5(21) = 2-amino-2-(pent-4-en-1-yl)hept-6-enoic acid, bis(4-pentenyl)glycine (stitching residue), C=CCCCC(CCCC=C)(N[*:1])C(=O)[*:2]; (NHCyBu)AsnR = N4-cyclobutyl-L-asparagine, O=C(C[C@H](N[*:1])C(=O)[*:2])NC1CCC1; (NHnPr)AsnR = N4-propyl-L-asparagine, CCCNC(=O)C[C@H](N[*:1])C(=O)[*:2]; Bta = N[C@@H](Cc1csc2ccccc12)C(=O)O; αAllylPro = C=CC[C@@]1(C(=O)O)CCCN1; S8 = C=CCCCCCC[C@](C)(N)C(=O)O
experimental-endpoint: log10(EC50) (log10 of the value in nM)

>  <binder>
XDLXDDAAFQXFXQ (not fully specified; Ac-PL3-Asp-Leu-B5-Asp-Asp-Ala-Ala-Phe-Gln-S8-Phe-BztA-Gln-NH2; N-terminal acetyl, C-terminal amide; non-natural: PL3(1), B5(4), S8(11), BztA(13); staples PL3(1)-B5(4) and B5(4)-S8(11)) [I-558]

>  <numeric-result>
1.75

$$$$
>  <binder>
Ac-[αAllylPro]DA[B5(21)][(NHCyBu)AsnR]DAAFV[S8]F[Bta]Q-NH2 (staple 1-4, 4-11, Stapled (stitched) peptide composition) [I-539]

>  <numeric-result>
3.70

$$$$
>  <binder>
Ac-[αAllylPro]DA[B5(21)][(NHnPr)AsnR]DAAFV[S8]F[Bta]Q-NH2 (staple 1-4, 4-11, Stapled (stitched) peptide composition) [I-537]

>  <numeric-result>
3.70

$$$$
>  <binder>
XDLXDDAAFQXFXQ (not fully specified; Ac-PL3-Asp-Leu-B5-Asp-Asp-Ala-Ala-Phe-Gln-S8-Phe-BztA-Gln-NH2; N-terminal acetyl, C-terminal amide; non-natural: PL3(1), B5(4), S8(11), BztA(13); staples PL3(1)-B5(4) and B5(4)-S8(11)) [I-559]

>  <numeric-result>
1.63

$$$$
>  <binder>
XDIXDDAAFNXFXH (not fully specified; Ac-PL3-Asp-Ile-B5-Asp-Asp-Ala-Ala-Phe-Asn-S8-2OMeF-BztA-His-NH2; N-terminal acetyl, C-terminal amide; non-natural: PL3(1), B5(4), S8(11), 2OMeF(12), BztA(13); staples PL3(1)-B5(4) and B5(4)-S8(11)) [I-554]

>  <numeric-result>
1.44

$$$$
>  <binder>
Ac-[αAllylPro]DI[B5(17)]DEAAFN[S8]F[Bta]Q-NH2 (staple 1-4, 4-11, Stapled (stitched) peptide composition) [I-557]

>  <numeric-result>
1.54

$$$$
>  <binder>
XDIXDDAAFNXFXQ (not fully specified; Ac-PL3-Asp-Ile-B5-Asp-Asp-Ala-Ala-Phe-Asn-S8-2OMeF-BztA-Gln-NH2; N-terminal acetyl, C-terminal amide; non-natural: PL3(1), B5(4), S8(11), 2OMeF(12), BztA(13); staples PL3(1)-B5(4) and B5(4)-S8(11)) [I-550]

>  <numeric-result>
1.48

$$$$
>  <binder>
XDTXDEAAFQXFXQ (not fully specified; Ac-PL3-Asp-TOMe-B5-Asp-Glu-Ala-Ala-Phe-Gln-S8-Phe-BztA-Gln-NH2; N-terminal acetyl, C-terminal amide; non-natural: PL3(1), TOMe(3), B5(4), S8(11), BztA(13); staples PL3(1)-B5(4) and B5(4)-S8(11)) [I-542]

>  <numeric-result>
2.04

$$$$
>  <binder>
Ac-[αAllylPro]DL[B5(4)]DEAAFN[S8]F[Bta]H-NH2 (staple 1-4, 4-11, Stapled (stitched) peptide composition) [I-543]

>  <numeric-result>
1.51

$$$$

Source of measurements: patent US20240116985A1
